# maps each entry to its Kd
# Tested Target: SKM9-2
# Experiment Description: SPR analysis of binding between SKM9-2 and soluble His-tagged minimum epitope peptides (SKMepmin)
# Assay Conditions: His-tagged SKMepmin secreted from transfected HEK293T immobilized on Ni2+-binding sensor chip NTA, analyte 5 µg/mL SKM9-2, running buffer 10 mM HEPES pH 8.1, 150 mM NaCl, 0.005% Tween-20, 50 µM EDTA, read-out: KD (M), dissociation constant
Report the value in M with no unit label.

Reference set, count: 5
| Ordered Residues | Tested Target | Experimental Result |
| --- | --- | --- |
| MAPLLLLLLPLLLLPPAAPGGAKAPSLVSLPAGGDYKDDDDKHHHHHHHH [SKMepmin4] | SKM9-2 | 1.15e-08 |
| MAPLLLLLLPLLLLPPAAPGGSKAPSLVALPAGGDYKDDDDKHHHHHHHH [SKMepmin8] | SKM9-2 | 3.25e-08 |
| MAPLLLLLLPLLLLPPAAPGGSKAPSLVSLPTGGDYKDDDDKHHHHHHHH [SKMepmin2] | SKM9-2 | 6.22e-09 |
| MAPLLLLLLPLLLLPPAAPGGSKAPSLVSLPAGGDYKDDDDKHHHHHHHH [SKMepmin3, minimum glycosylation peptide 893-…-903 -FLAG-Hisx8 with two disialyl T at Ser893 and Ser900] | SKM9-2 | 2.82e-09 |
| MAPLLLLLLPLLLLPPAAPGGSKAPSLVTLPAGGDYKDDDDKHHHHHHHH [SKMepmin9] | SKM9-2 | 6.38e-09 |

So what does the record say about Kd for MAPLLLLLLPLLLLPPAAPGGSKSPSLVSLPTGGDYKDDDDKHHHHHHHH [SKMepmin1] ? 8.75e-09

Ok, now MAPLLLLLLPLLLLPPAAPGGSKAPTLVSLPAGGDYKDDDDKHHHHHHHH [SKMepmin7] 6.17e-08

Ok, now MAPLLLLLLPLLLLPPAAPGGTKAPSLVSLPAGGDYKDDDDKHHHHHHHH [SKMepmin5] 2.9e-09

Ok, now MAPLLLLLLPLLLLPPAAPGGSKAPALVSLPAGGDYKDDDDKHHHHHHHH [SKMepmin6] 4.2e-08

This collection of values is drawn from paper PMC6155162.
